Please go through the items and note down their z-score.
target: NADPH oxidase 4 (Homo sapiens); experiment: compounds shifting NOX4 Amplex Red fluorescence – cell-based, HEK293-NOX4, tetracycline-induced, NOX inhibitor project, primary screen (AID 1160); details: HEK293-NOX4, Amplex Red H2O2 fluorescence, 45 min; higher = more signal, called active from +8 up or from −8 down
Active and inactive are the calls of the source.

Note down z-score recorded for COc1ccccc1CN1C(=O)c2ccccc2[C@@]2(Cc3ccccc3N(C3CC3)C2=O)[C@@H]1c1ccc(CO)cc1 0.394 (inactive)

Note down z-score recorded for C=CCC(OC(C)=O)[C@@H]1[C@@H](N(Cc2ccc(-c3cccc(C(F)(F)F)c3)o2)C(=O)c2cccc3ccccc23)c2cc(OCCCO)ccc2N1C(=O)c1ccc(-c2ccccc2)cc1 (stereo partly specified) -1.45 (inactive)

Note down z-score recorded for CC(C)N1C(=O)c2ccccc2[C@](C)(C(=O)O)[C@@H]1c1ccc(CO)cc1 -0.166 (inactive)

Note down z-score recorded for [N-]=[N+]=Nc1ccccc1[C@@H]1OC(c2ccc(OCCCO)cc2)=N[C@]1(CCS(=O)(=O)c1ccccc1)C(=O)NCc1ccccc1 0.642 (inactive)

Note down z-score recorded for NC(=O)[C@H]1[C@@H]2C(=O)O[C@@H](c3ccccc3)[C@@H](c3ccccc3)N2[C@@H](c2ccc(O)cc2)[C@]12C(=O)Nc1ccc(C#CC3(O)CCCCCC3)cc12 -0.429 (inactive)

Note down z-score recorded for CC(=O)NCCCC[C@@H]1NC(=O)[C@@H]2C[C@H](C(=O)NCCCC[N+](C)(C)C)[C@H](c3cccc(OCCO)c3)N2C1=O -0.0151 (inactive)

Note down z-score recorded for CN(C)CCCC[C@@H]1NC(=O)[C@H]2C[C@@H](C(=O)NCCCCCCNC(=O)CS)[C@@H](c3ccc(O)cc3)N2C1=O 1.78 (inactive)

Note down z-score recorded for N#Cc1ccc(NN2C(C(O)c3ccco3)C=CC3C(=O)N(c4ccccc4)C(=O)C32)cc1 (stereo unspecified) -4.51 (inactive)

Note down z-score recorded for Cc1ccc(-c2cccc(=O)o2)cc1 -1.66 (inactive)

Note down z-score recorded for COC(=O)c1ccc(OC)c(/C=C\CC(CCc2ccccc2)OC(C)=O)c1 (stereo unspecified) 0.424 (inactive)

Note down z-score recorded for COCCOC(=O)N1C(=O)[C@@]2(c3cc(C#Cc4ccc(OC)cc4)ccc31)[C@H](C(N)=O)[C@H]1C(=O)O[C@H](c3ccccc3)[C@H](c3ccccc3)N1[C@@H]2c1ccc(OCCO)cc1 -0.164 (inactive)

Note down z-score recorded for CN1C(=O)C2C=CC(C(O)COCc3ccccc3)N(Nc3ccccc3)C2C1=O (stereo unspecified) -4.03 (inactive)

Note down z-score recorded for COC(=O)[C@@]1(Cc2ccccc2)[C@H]2c3cc(C(=O)N4CCCC4)n(CCO)c3C[C@H]2CN1C(=O)c1ccccc1 -0.517 (inactive)

Note down z-score recorded for COCCOC(=O)N1C(=O)[C@@]2(c3cc(C#CCNC(N)=O)ccc31)[C@H](C(N)=O)[C@H]1C(=O)O[C@H](c3ccccc3)[C@H](c3ccccc3)N1[C@@H]2c1ccc(OCCO)cc1 1.04 (inactive)

Note down z-score recorded for CCCCCCCCCCC(O)C1C=CC2C(=O)NC(=O)C2N1Nc1ccccn1 (stereo unspecified) -5.71 (inactive)

Note down z-score recorded for C=C(C)[C@@H]1CC=C(C(O)C2C=CC3C(=O)N(C4CCCCC4)C(=O)C3N2Nc2ccc(OC)cc2)CC1 (stereo partly specified) -1.34 (inactive)

Note down z-score recorded for CCCNC(=O)[C@@H]1c2ccccc2C(=O)N(CC23CC4CC(CC(C4)C2)C3)[C@H]1c1ccc(CO)cc1 -1.2 (inactive)

Note down z-score recorded for CO[C@H]1O[C@H](CO)[C@@H](OC(=O)Nc2cccc(F)c2)[C@H](OC(=O)Nc2ccc3c(c2)OCO3)[C@H]1OC(=O)Nc1ccc2c(c1)OCO2 -0.681 (inactive)

Note down z-score recorded for C[C@]12C(=O)N(CCCCCO)[C@@H]3C(=O)N(c4ccc(Cl)cc4)CC=CC31O[C@@H]1/C=C\CCCOC(=O)C12 (stereo partly specified) 0.055 (inactive)

Note down z-score recorded for CN1C(=O)C2C=CC(C(O)c3cccc4ccccc34)N(NC(=O)OC(C)(C)C)C2C1=O (stereo unspecified) -3.85 (inactive)

Note down z-score recorded for O=C(CS)NCCCCCNC(=O)[C@@H]1C[C@@H]2C(=O)N3CCC[C@H]3C(=O)N2[C@@H]1c1ccc(O)cc1 0.313 (inactive)

Note down z-score recorded for COC(=O)[C@@]1(Cc2ccc(OC)cc2)[C@H]2c3cc(C(=O)N4CCCC4)n(Cc4ccc(C)o4)c3C[C@H]2CN1C(=O)c1ccccc1 -2.62 (inactive)

Note down z-score recorded for Cc1cc(C)c(C(O)C2C=CC3C(=O)N(c4ccccc4)C(=O)C3N2Nc2ccccc2)c(C)c1 (stereo unspecified) -3.06 (inactive)

Note down z-score recorded for COc1ccc([Si](C)(C)[C@H]2[C@H](CCO)O[C@@]3(C(=O)N(Cc4cccc(N5CCOC5=O)c4)c4ccccc43)[C@@H]2C)cc1 0.553 (inactive)

Note down z-score recorded for [N-]=[N+]=Nc1ccccc1[C@H]1OC(c2ccc(OCCCO)cc2)=N[C@@]1(Cc1ccccc1)C(=O)NCc1ccccc1 -0.275 (inactive)

Note down z-score recorded for O=C(Nc1cc(Br)ccc1C(=O)NCc1cccc(O)c1)c1ccccc1 -1.69 (inactive)

The origin of these recorded values is PubChem BioAssay.
